# details: in propylene glycol, 318.15 K
measure name: solubility (mole fraction)

                           structure_smiles  assay_result
0  COc1cc2c(cc1OC)-c1cc3ccc(OC)c(OC)c3c[n+]1CC2.[Cl-]      9.27e-05

----------
# details: in water, 308.15 K
measure name: solubility (mole fraction)

In [3]: df
Out[3]:
                           structure_smiles                measure_name  assay_result
0  COc1cc2c(cc1OC)-c1cc3ccc(OC)c(OC)c3c[n+]1CC2.[Cl-]  solubility (mole fraction)       0.00165

----------
# details: in water, 298.15 K
measure name: solubility (mole fraction)

>>> print(df.to_string())
                           structure_smiles                measure_name  assay_result
0  COc1cc2c(cc1OC)-c1cc3ccc(OC)c(OC)c3c[n+]1CC2.[Cl-]  solubility (mole fraction)        0.0011

----------
# details: in propylene glycol, 303.15 K
measure name: solubility (mole fraction)

>>> df
                           structure_smiles  assay_result
0  COc1cc2c(cc1OC)-c1cc3ccc(OC)c(OC)c3c[n+]1CC2.[Cl-]      3.12e-05

----------
# details: in isopropanol, 288.15 K
measure name: solubility (mole fraction)

In [3]: df
Out[3]:
                           structure_smiles  assay_result
0  COc1cc2c(cc1OC)-c1cc3ccc(OC)c(OC)c3c[n+]1CC2.[Cl-]      0.000218

----------
# details: in ethylene glycol, 308.15 K
measure name: solubility (mole fraction)

                           structure_smiles                measure_name  assay_result
0  COc1cc2c(cc1OC)-c1cc3ccc(OC)c(OC)c3c[n+]1CC2.[Cl-]  solubility (mole fraction)       0.00441

----------
# details: in isopropanol, 308.15 K
measure name: solubility (mole fraction)

                           structure_smiles  assay_result
0  COc1cc2c(cc1OC)-c1cc3ccc(OC)c(OC)c3c[n+]1CC2.[Cl-]      0.000603

----------
# details: in water, 323.15 K
measure name: solubility (mole fraction)

                           structure_smiles                measure_name  assay_result
0  COc1cc2c(cc1OC)-c1cc3ccc(OC)c(OC)c3c[n+]1CC2.[Cl-]  solubility (mole fraction)       0.00287

----------
# details: in ethylene glycol, 283.15 K
measure name: solubility (mole fraction)

                           structure_smiles  assay_result
0  COc1cc2c(cc1OC)-c1cc3ccc(OC)c(OC)c3c[n+]1CC2.[Cl-]       0.00173

----------
# details: in propylene glycol, 283.15 K
measure name: solubility (mole fraction)

>>> print(df.to_string())
                           structure_smiles  assay_result
0  COc1cc2c(cc1OC)-c1cc3ccc(OC)c(OC)c3c[n+]1CC2.[Cl-]      6.32e-06

----------
# details: in isopropanol, 313.15 K
measure name: solubility (mole fraction)

>>> print(df.to_string())
                           structure_smiles  assay_result
0  COc1cc2c(cc1OC)-c1cc3ccc(OC)c(OC)c3c[n+]1CC2.[Cl-]      0.000754
